Origin of the recorded values: patent US20260258084A1

system: Pancreatin; assay: Protease stability in simulated intestinal fluid (Pancreatin-SIF, FaSSIF); type: in vitro ADME; conditions: 60 min, 1 μM peptide, 37° C., read-out: FaSSIF 60 (min), remaining percent of peptide
Starred links: 1 amine or outer side, 2 acyl side, 3 side chain; linkers in the order of their positions; H or OH if unused. Positions of bridges follow the written chain, without caps; N, C: chain ends. Non-standard residues stand in square brackets, D forms with d. Residues, ends and D or L forms follow the SMILES beside them. *: point of attachment. X3 = CN(CCCCC(=O)N[C@@H](CS[*:2])C(=O)[*:1])[*:3]; Trp(7-Me) = Cc1cccc2c(C[C@H](N)C(=O)O)c[nH]c12; X1 = O=C(CCCCN[*:3])N[C@@H](CS[*:2])C(=O)[*:1]; 2Nal = N[C@@H](Cc1ccc2ccccc2c1)C(=O)O; AEF = NCCOc1ccc(C[C@H](N)C(=O)O)cc1; 3Pal = N[C@@H](Cc1cccnc1)C(=O)O; X4 = CN(CCCCCC(=O)[*:2])[*:1]; αMeL = CC(C)C[C@](C)(N)C(=O)O; Thp = NC1(C(=O)O)CCOCC1; Me2NCH2CH2 = CN(C)CC*; Aib = CC(C)(N)C(=O)O; Ava = NCCCCC(=O)O; Sar = CNCC(=O)O
Examples of compounds with documented remaining at 1 h, 1 µM follow.
Use % as the unit, but write only the number.

CC[C@H](C)[C@H](NC(=O)[C@H](CC(N)=O)NC(=O)[C@H](CC(N)=O)NC(=O)[C@@H]1CCC(=O)NCCCCC(=O)N[C@H]2CSSC[C@H](NC(=O)[C@H](CCC(N)=O)NC(=O)[C@H](Cc3c[nH]c4ccccc34)NC(=O)[C@H]([C@@H](C)O)NC(=O)[C@H](CC(N)=O)NC2=O)C(=O)N[C@@H](Cc2ccc(OCCN(C)C)cc2)C(=O)N[C@@H](Cc2ccc3ccccc3c2)C(=O)NC(C)(C)C(=O)N1)C(N)=O [compound 57] ([Ava]CNTWQCY(Me2NCH2CH2)[2Nal][Aib]ENNI-NH2; disulfide 2-7; lactam N-11); 95
CC(=O)NCCCC[C@@H]1NC(=O)[C@H](Cc2c[nH]c3c(C)cccc23)NC(=O)[C@@H](NC(C)=O)CCCCNC(=O)[C@@H]2CSSC[C@H](NC1=O)C(=O)N[C@@H](Cc1ccc(OCCN(C)C)cc1)C(=O)N[C@@H](Cc1ccc3ccccc3c1)C(=O)NC(C)(C)C(=O)N[C@H](C(=O)N[C@@H](CC(N)=O)C(=O)N[C@@H](Cc1cccnc1)C(=O)N(C)CC(N)=O)CCC(=O)NCCCCC(=O)N2 [compound 72] (Ac-K[Trp(7-Me)]K(Ac)CY(Me2NCH2CH2)[2Nal][Aib]EN[3Pal][Sar]-NH2; linker 1-4-8 via X1); 91
CC(=O)N[C@H]1CCCCNC(=O)[C@@H]2CSSC[C@H](NC(=O)[C@H](CCC(N)=O)NC(=O)[C@H](Cc3c[nH]c4ccccc34)NC1=O)C(=O)N[C@@H](Cc1ccc(OCCN)cc1)C(=O)N[C@@H](Cc1ccc3ccccc3c1)C(=O)NC1(CCOCC1)C(=O)N[C@H](C(=O)N[C@@H](C)C(=O)N[C@H](CC(C)C)C(N)=O)CCC(=O)N(C)CCCCC(=O)N2 [compound 34] (Ac-KWQC[AEF][2Nal][Thp]EA[dL]-NH2; linker 1-4-8 via X3); 100
CC(C)C[C@@H](NC(=O)[C@H](CC(N)=O)NC(=O)[C@@H]1CC(=O)N(C)CCCCCC(=O)N[C@H]2CSSC[C@H](NC(=O)[C@H](CCC(N)=O)NC(=O)[C@H](Cc3c[nH]c4ccccc34)NC(=O)[C@H]([C@@H](C)O)NC(=O)[C@H](CC(N)=O)NC2=O)C(=O)N[C@@H](Cc2ccc(OCCN(C)C)cc2)C(=O)N[C@@H](Cc2ccc3ccccc3c2)C(=O)N[C@@](C)(CC(C)C)C(=O)N1)C(N)=O [compound 40] ([X4]CNTWQCY(Me2NCH2CH2)[2Nal][αMeL]DN[dL]-NH2; disulfide 2-7; lactam N-11); 77

Now consider the entry below.
Here C[C@@H](O)[C@@H]1NC(=O)[C@H](CC(N)=O)NC(=O)[C@@H]2CSSC[C@H](NC(=O)[C@H](CCC(N)=O)NC(=O)[C@H](Cc3c[nH]c4ccccc34)NC1=O)C(=O)N[C@@H](Cc1ccc(OCCN(C)C)cc1)C(=O)N[C@@H](Cc1ccc3ccccc3c1)C(=O)NC(C)(C)C(=O)N[C@H](C(=O)N[C@@H](CC(N)=O)C(=O)N[C@@H](CC(N)=O)C(N)=O)CCCCN(C)C(=O)CCC(=O)N2 [compound 25] was tested on Pancreatin, and its remaining at 1 h, 1 µM came to 71

---

system: Pancreatin; assay: Protease stability in simulated intestinal fluid (Pancreatin-SIF, FaSSIF); type: in vitro ADME; settings: 60 min, 1 μM peptide, 37° C., read-out: FaSSIF 60 (min), remaining percent of peptide
Starred links: 1 amine or outer side, 2 acyl side, 3 side chain; linkers in the order of their positions; H or OH if unused. Positions of bridges follow the written chain, without caps; N, C: chain ends. Non-standard residues stand in square brackets, D forms with d. Residues, ends and D or L forms follow the SMILES beside them. *: point of attachment. αMeLys(Me2) = CN(C)CCCC[C@](C)(N)C(=O)O; X2 = CN(C)[C@@H](CCCCN[*:1])C(=O)[*:2]; 2Nal = N[C@@H](Cc1ccc2ccccc2c1)C(=O)O; 3Pal = N[C@@H](Cc1cccnc1)C(=O)O; Me2NCH2CH2 = CN(C)CC*; Ava = NCCCCC(=O)O; Sar = CNCC(=O)O
Experimental Readout: remaining at 1 h, 1 µM (%)
Dear colleague, please return just the value in %, with no unit written.

# remaining at 1 h, 1 µM (molecule: CC(=O)NCCCC[C@@H]1NC(=O)[C@H](Cc2c[nH]c3ccccc23)NC(=O)[C@@H](N(C)C)CCCCNC(=O)[C@@H]2CSSC[C@H](NC1=O)C(=O)N[C@@H](Cc1ccc(OCCN(C)C)cc1)C(=O)N[C@@H](Cc1ccc3ccccc3c1)C(=O)N[C@@](C)(CCCCN(C)C)C(=O)N[C@H](C(=O)N[C@@H](CC(N)=O)C(=O)N[C@@H](Cc1cccnc1)C(=O)N(C)CC(N)=O)CCC(=O)NCCCCC(=O)N2 [compound 36] ([Ava]C[X2]WK(Ac)CY(Me2NCH2CH2)[2Nal][αMeLys(Me2)]EN[3Pal][Sar]-NH2; disulfide 2-6; lactam N-10) ) is 97

---

system: Pepsin; construct: purchased Merck Millipore; assay: Protease stability in simulated gastric fluid (Pepsin-SGF, FaSSGF); format: in vitro ADME; settings: simulated gastric fluid with pepsin (Pepsin-SGF), 60 min, 1 μM peptide, 37° C., read-out: FaSSGF 60 (min), remaining percent of peptide
Starred links: 1 amine or outer side, 2 acyl side, 3 side chain; linkers in the order of their positions; H or OH if unused. Positions of bridges follow the written chain, without caps; N, C: chain ends. Non-standard residues stand in square brackets, D forms with d. Residues, ends and D or L forms follow the SMILES beside them. *: point of attachment. Trp(7-Me) = Cc1cccc2c(C[C@H](N)C(=O)O)c[nH]c12; X1 = O=C(CCCCN[*:3])N[C@@H](CS[*:2])C(=O)[*:1]; αMeLys(Me2) = CN(C)CCCC[C@](C)(N)C(=O)O; 2Nal = N[C@@H](Cc1ccc2ccccc2c1)C(=O)O; Thp = NC1(C(=O)O)CCOCC1; Me2NCH2CH2 = CN(C)CC*; Aib = CC(C)(N)C(=O)O; Ava = NCCCCC(=O)O; βAla = NCCC(=O)O
Listing of recorded remaining at 1 h, 1 µM by entry.
Respond numerically; units are % and should not be typed.

Sample records with remaining at 1 h, 1 µM:
C[C@@H](O)[C@@H]1NC(=O)[C@H](CC(N)=O)NC(=O)[C@@H]2CSSC[C@H](NC(=O)[C@H](CCC(N)=O)NC(=O)[C@H](Cc3c[nH]c4ccccc34)NC1=O)C(=O)N[C@@H](Cc1ccc(OCCN(C)C)cc1)C(=O)N[C@@H](Cc1ccc3ccccc3c1)C(=O)NC(C)(C)C(=O)N[C@H](C(=O)N[C@@H](CC(N)=O)C(=O)N[C@@H](CC(N)=O)C(N)=O)CCCCN(C)C(=O)CCC(=O)N2; 74
CC(=O)NCCCC[C@@H]1NC(=O)[C@H](Cc2c[nH]c3c(C)cccc23)NC(=O)[C@H]([C@@H](C)O)NC(=O)[C@H](CC(N)=O)NC(=O)[C@@H]2CSSC[C@H](NC1=O)C(=O)N[C@@H](Cc1ccc(OCCN(C)C)cc1)C(=O)N[C@@H](Cc1ccc3ccccc3c1)C(=O)N[C@@](C)(CCCCN(C)C)C(=O)N[C@H](C(=O)N[C@@H](CC(N)=O)C(=O)N[C@H](CC(C)C)C(N)=O)CCC(=O)NCCCCC(=O)N2 [compound 54] ([Ava]CNT[Trp(7-Me)]K(Ac)CY(Me2NCH2CH2)[2Nal][αMeLys(Me2)]EN[dL]-NH2; disulfide 2-7; lactam N-11); 91
CC(=O)NCCCC[C@@H]1NC(=O)[C@H](Cc2c[nH]c3c(C)cccc23)NC(=O)[C@H]([C@@H](C)O)NC(=O)[C@H](CC(N)=O)NC(=O)[C@@H]2CSSC[C@H](NC1=O)C(=O)N[C@@H](Cc1ccc(OCCN(C)C)cc1)C(=O)N[C@@H](Cc1ccc3ccccc3c1)C(=O)NC1(CCOCC1)C(=O)N[C@H](C(=O)N[C@@H](CC(N)=O)C(=O)N[C@@H](Cc1c[nH]cn1)C(=O)NCCC(N)=O)CCC(=O)NCCCCC(=O)N2 [compound 49] ([Ava]CNT[Trp(7-Me)]K(Ac)CY(Me2NCH2CH2)[2Nal][Thp]ENH[βAla]-NH2; disulfide 2-7; lactam N-11); 100
CC(=O)NCCCC[C@@H]1NC(=O)[C@H](Cc2c[nH]c3c(C)cccc23)NC(=O)[C@@H](NC(C)=O)CCCCNC(=O)[C@@H]2CSSC[C@H](NC1=O)C(=O)N[C@@H](Cc1ccc(OCCN(C)C)cc1)C(=O)N[C@@H](Cc1ccc3ccccc3c1)C(=O)NC1(CCOCC1)C(=O)N[C@H](C(=O)N[C@@H](CC(N)=O)C(=O)N[C@@H](Cc1cccnc1)C(=O)N(C)CC(N)=O)CCCCN(C)CCCCN2C; 100

The measured remaining at 1 h, 1 µM associated with COc1ccc(C[C@@H]2NC(=O)[C@@H]3CSSC[C@H](NC(=O)[C@@H](NC(C)=O)CCCCNC(=O)C[C@@H](C(=O)N[C@@H](CC(N)=O)C(=O)N[C@@H](CC(N)=O)C(N)=O)NC(=O)C(C)(C)NC(=O)[C@H](Cc4ccc5ccccc5c4)NC2=O)C(=O)N[C@@H](CC(N)=O)C(=O)N[C@@H]([C@@H](C)O)C(=O)N[C@@H](Cc2c[nH]c4ccccc24)C(=O)N[C@@H](CCC(N)=O)C(=O)N3)cc1 [compound 7] (Ac-KCNTWQCY(Me)[2Nal][Aib]DNN-NH2; lactam 1-11; disulfide 2-7) reads 0

# compound CC(=O)N[C@H]1CCCCNC(=O)[C@@H]2CSSC[C@H](NC(=O)[C@H](CCC(N)=O)NC(=O)[C@H](Cc3c[nH]c4ccccc34)NC1=O)C(=O)N[C@@H](Cc1ccc(OCCN(C)C)cc1)C(=O)N[C@@H](Cc1ccc3ccccc3c1)C(=O)NC1(CCOCC1)C(=O)N[C@H](C(=O)N[C@@H](C)C(=O)N[C@H](CC(C)C)C(N)=O)CCC(=O)NCCCCC(=O)N2 [compound 33] (Ac-KWQCY(Me2NCH2CH2)[2Nal][Thp]EA[dL]-NH2; linker 1-4-8 via X1) ; its remaining at 1 h, 1 µM = 100
